The measured values listed here are drawn from the supplement of paper PMC10567573.

B1: INTS3 (parent)
chain: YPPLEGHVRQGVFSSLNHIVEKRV

variants of: B1; assay: protein stability index of a GFP-peptide fusion (GPS, HEK-293T) (PSI 1-6); higher = more stable; details: c terminus: a fixed tail appended;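 note: lentivirally expressed fusions sorted by FACS into six bins by GFP to DsRed ratio, PSI derived from sequencing read proportions per bin multiplied by bin number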
Values of protein stability index greater than or equal to 3 map to T; values below map to F.

Exercise: Is protein stability index at least 3? Consider YPPLEGHVRQGVLSSLNHIVEKRV [F13L]
Solution: T

Exercise: Now consider YPPLEGHVRQGVFSSWNHIVEKRV [L16W] .
Solution: F

Exercise: Now consider YPPLEGHVRQGVFHSLNHIVEKRV [S14H] .
Solution: F

Exercise: Now consider YPPLEGHVRQGVFSSLNHIFEKRV [V20F] .
Solution: F
